biological target: aldose reductase (Rattus norvegicus, UniProt P07943); construct: water soluble extracts of rat lenses; from tissue; host or cells: rat lens (water-soluble extract); assay: Inhibition of aldose reductase enzyme activity (Kador and Sharpless method, water soluble extracts of rat lenses); format: biochemical; conditions: Table 1; 3.3 × 10^-7 M
value-type: inhibition at 0.33 µM (%)
Express your answer in %, writing the number without its unit.

Worked cases, inhibition at 0.33 µM given:
molecule: O=C1NC(=O)C2(CCOc3ccc(F)cc32)N1 (stereo not shown) [Q, reference compound]
units-label: %
recorded-result: 46
--
molecule: O=C1NC(=O)C2(CC(CBr)Oc3ccc(F)cc32)N1 (racemic) [G]
units-label: %
recorded-result: 70
--
molecule: O=C1NC(=O)C2(CC(CBr)Oc3ccc(F)cc32)N1 (stereo not shown) [H]
units-label: %
recorded-result: 82

// query Which measured inhibition at 0.33 µM value corresponds to O=C1NC(=O)C2(CC(CCl)Oc3ccc(F)cc32)N1 (racemic) ?
// result 78

---

target: aldose reductase (Rattus norvegicus, UniProt P07943); construct: water soluble extracts of rat lenses; from tissue; host or cells: rat lens (water-soluble extract); test: Inhibition of aldose reductase enzyme activity (Kador and Sharpless method, water soluble extracts of rat lenses); format: biochemical; conditions: Table 2; 3.3 × 10^-8 M; read-out: Inhibition (%)
Classify as follows. Reported inhibition at 0.033 µM greater than or equal to 60%: fulfilled. Reported inhibition at 0.033 µM below: not fulfilled.

Check out these entries, answers already filled in.
molecule: NC(=O)C1CC2(NC(=O)NC2=O)c2cc(F)cc([N+](=O)[O-])c2O1 (racemic)
class: not fulfilled
--
molecule: O=C1NC(=O)C2(CCOc3ccc(F)cc32)N1 (stereo not shown) [R, reference compound]
class: not fulfilled
--
molecule: NC(=O)[C@H]1CC2(NC(=O)NC2=O)c2cc(F)cc([N+](=O)[O-])c2O1 (stereo partly shown)
class: fulfilled
--
molecule: NC(=O)C1CC2(NC(=O)NC2=O)c2cc(F)cc(N)c2O1 (racemic)
class: not fulfilled
--
molecule: CC(=O)Nc1cc(F)cc2c1O[C@@H](C(N)=O)CC21NC(=O)NC1=O (stereo partly shown)
class: fulfilled

Shift focus to the following entry.
// query Please check the record O=C1NC(=O)C2(CC(CCl)Oc3c([N+](=O)[O-])cc(F)cc32)N1 (racemic) and state if its inhibition at 0.033 µM is at or above 60%.
// result not fulfilled

---

molecular target: aldose reductase (Rattus norvegicus, UniProt P07943); construct: water soluble extracts of rat lenses; from tissue; host or cells: rat lens (water-soluble extract); assay: Inhibition of aldose reductase enzyme activity (Kador and Sharpless method, water soluble extracts of rat lenses); format: biochemical; settings: Table 1; 3.3 × 10^-8 M; read-out: Inhibition (%)
Each record here notes measured inhibition at 0.033 µM.
Express your answer in %, writing the number without its unit.

Worked cases, inhibition at 0.033 µM given:
compound: O=C1NC(=O)C2(CC(CBr)Oc3ccc(F)cc32)N1 (racemic) [G]
assay-target: aldose reductase (Rattus norvegicus, UniProt P07943)
inhibition at 0.033 µM / %: 22
--
compound: O=C1NC(=O)C2(CC(CCl)Oc3ccc(F)cc32)N1 (racemic) [D]
assay-target: aldose reductase (Rattus norvegicus, UniProt P07943)
inhibition at 0.033 µM / %: 28
--
compound: O=C1NC(=O)C2(CC(CCl)Oc3ccc(F)cc32)N1 (centres unmarked) [Compound E]
assay-target: aldose reductase (Rattus norvegicus, UniProt P07943)
inhibition at 0.033 µM / %: 38
--
compound: O=C1NC(=O)C2(CCOc3ccc(F)cc32)N1 (centres unmarked) [Q, reference compound]
assay-target: aldose reductase (Rattus norvegicus, UniProt P07943)
inhibition at 0.033 µM / %: 10

The record that follows has no inhibition at 0.033 µM shown yet.
// query Which measured inhibition at 0.033 µM value corresponds to O=C1NC(=O)C2(CC(CBr)Oc3ccc(F)cc32)N1 (centres unmarked) [H] ?
// result 35
